Assay: amyloid nucleation score (Sup35N fusion, yeast selection) (log enrichment); library NNK1; higher = more nucleation; inactive = no reads after selection;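 note: zero at mode of non-aggregating sequences after 7 days selection at 30°C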
Answer No if amyloid nucleation score is under 0.02, and Yes if it is 0.02 or more.

Exam item: For this substance, is measured amyloid nucleation score 0.02 or higher? "ILNGFTRYLR"
Marked response: No

----------
Experiment: amyloid nucleation score (Sup35N fusion, yeast selection) (log enrichment); library NNK1; higher = more nucleation; inactive = no reads after selection
Answer No if amyloid nucleation score is under 0.2, and Yes if it is 0.2 or more.

Consider the worked cases shown below.
# substance, cat
data = [
    ("NCFSMRQRECCRYRMCVNGI", "Yes"),
    ("RRCCNVERGSAKVALTV", "No"),
    ("LHSQKGILSLSSPI", "No"),
    ("VKQSST", "Yes"),
    ("WRFEYWFRGIHYCIYNYFC", "No"),
    ("LKYMYHYVSMKVFVLGISMR", "No"),
    ("IYVWKTQ", "No"),
    ("WDAGVFWKMYLSTCRTSI", "Yes"),
    ("VVHRALLYGNGIVN", "Yes"),
    ("VGRLGVEG", "No"),
]

# evaluate next
Exam item: For this substance, is measured amyloid nucleation score 0.2 or higher? "SLVMGVYRRQCRGNPRAMSK"
Marked response: Yes

----------
# Lookup of reported amyloid nucleation score keyed by entry
Experiment: amyloid nucleation score (Sup35N fusion, yeast selection) (log enrichment); library NNK1; higher = more nucleation; inactive = no reads after selection
Output spec: single numeric token, no unit.

Use these answered entries as a reference point.
# substance, amyloid nucleation score
records = [
    ("NLPSSKKVLPCFFLRSIYGC", 0.9),
    ("LSCKSVVPLSNSWYAIVLRL", 1.19),
    ("KFVWVIAVDVDSRCKFCCGS", 0.354),
    ("VFTLPLDWQKRCGYDSLRFP", 0.018),
    ("FMCIPV", 0.189),
]

Exam item: Provide one value: measured amyloid nucleation score of "CGYMLVYDAHMHRSLLCAC"
Marked response: -0.285

Exam item: Provide one value: measured amyloid nucleation score of "RVWCKWH"
Marked response: 0.027

----------
Test: amyloid nucleation score (Sup35N fusion, yeast selection) (log enrichment); library NNK3; higher = more nucleation; inactive = no reads after selection
measurementName: amyloid nucleation score

Use these answered entries as a reference point.
# substance, amyloid nucleation score
records = [
    ("FGTDDEDVKCNVMTALCRIW", "inactive"),
    ("HWLTSSVKSLTPRSGQKGLD", "inactive"),
    ("TLCLQKHPSFGDYIFG", "inactive"),
    ("HMPDFVCLFNHVMPWIWIRV", "inactive"),
    ("DSYCYVWYKYSNVNVGD", "inactive"),
]

Exam item: Provide one value: measured amyloid nucleation score of "CTLGHCMKLSMSSFPAVGKV"
Marked response: inactive

Exam item: Provide one value: measured amyloid nucleation score of "ASGLDIISSSNKLH"
Marked response: inactive

Exam item: Provide one value: measured amyloid nucleation score of "NVRGNNLSRM"
Marked response: inactive

Exam item: Provide one value: measured amyloid nucleation score of "YWPIHSSTAETDVTVRTRSY"
Marked response: 1.01

Exam item: Provide one value: measured amyloid nucleation score of "YNNVCSEAEWS"
Marked response: inactive

Exam item: Provide one value: measured amyloid nucleation score of "TLCMVQRSRVVSLLSVGRIL"
Marked response: -0.223

Exam item: Provide one value: measured amyloid nucleation score of "GFIVGLLARSTIFTTNYMLK"
Marked response: inactive
